Test system: Pseudomonas aeruginosa
protocol-text: Antibacterial activity against Pseudomonas aeruginosa MTCC 424 at 1000 ug/ml after 48 hr by cup-plate method
Type: functional
condition-label: MTCC 424, 48 h, read-out: DIZ
measurement-type: zone of inhibition at 1000 µg/mL (mm)
One number for each entry, in mm.

Check out these entries, answers already filled in.
# compound, measurement-units, zone of inhibition at 1000 µg/mL
measured = [
    ("O=[N+]([O-])c1ccc(C2CC(c3cccc4ccccc34)=NN2c2ccc([N+](=O)[O-])cc2[N+](=O)[O-])cc1 (configuration not stated)", "mm", 14),
    ("O=[N+]([O-])c1ccc(C2CC(c3cccc4ccccc34)=NN2c2ccccc2[N+](=O)[O-])cc1 (configuration not stated)", "mm", 17),
    ("O=[N+]([O-])c1ccc(C2CC(c3cccc4ccccc34)=NN2)cc1 (configuration not stated)", "mm", 13),
    ("O=[N+]([O-])c1ccc(C2CC(c3cccc4ccccc34)=NN2c2ccc([N+](=O)[O-])cc2)cc1 (configuration not stated)", "mm", 16),
    ("NC(=O)N1N=C(c2cccc3ccccc23)CC1c1ccc([N+](=O)[O-])cc1 (configuration not stated)", "mm", 13),
]

Batch: zone of inhibition at 1000 µg/mL for all items listed.
1. NC(=S)N1N=C(c2cccc3ccccc23)CC1c1ccc([N+](=O)[O-])cc1 (configuration not stated)
2. O=[N+]([O-])c1ccc(C2CC(c3cccc4ccccc34)=NN2c2ccccc2)cc1 (configuration not stated)

Response:
[19, 17]

---

System: Escherichia coli
protocol-text: Antibacterial activity against Escherichia coli MTCC 1573 after 24 to 48 hr by tube dilution method
Type: functional
Assignment: determine reported MIC for the given compounds.
One number for each entry, in µg/mL.

Past entries and their recorded results:
# compound, measurement-units, MIC
measured = [
    ("NC(=S)N1N=C(c2cccc3ccccc23)CC1c1ccc([N+](=O)[O-])cc1 (configuration not stated)", "µg/mL", 50),
    ("O=[N+]([O-])c1ccc(C2CC(c3cccc4ccccc34)=NN2c2ccccc2[N+](=O)[O-])cc1 (configuration not stated)", "µg/mL", 30),
    ("O=[N+]([O-])c1ccc(C2CC(c3cccc4ccccc34)=NN2)cc1 (configuration not stated)", "µg/mL", 200),
    ("O=[N+]([O-])c1ccc(C2CC(c3cccc4ccccc34)=NN2c2ccc([N+](=O)[O-])cc2[N+](=O)[O-])cc1 (configuration not stated)", "µg/mL", 150),
    ("NC(=O)N1N=C(c2cccc3ccccc23)CC1c1ccc([N+](=O)[O-])cc1 (configuration not stated)", "µg/mL", 50),
    ("O=[N+]([O-])c1ccc(C2CC(c3cccc4ccccc34)=NN2c2ccc([N+](=O)[O-])cc2)cc1 (configuration not stated)", "µg/mL", 50),
]

Prompt: Can you share its MIC? I mean this compound: O=[N+]([O-])c1ccc(C2CC(c3cccc4ccccc34)=NN2c2ccccc2)cc1 (configuration not stated)
Response: 50

---

Give measured zone of inhibition at 750 µg/mL for each item. Keep answers brief.
Test system: Bacillus pumilus
protocol-text: Antibacterial activity against Bacillus pumilus MTCC 1456 at 750 ug/ml after 48 hr by cup-plate method
Assay type: functional
condition-label: MTCC 1456, 48 h, read-out: DIZ
Answers are plain numbers, in mm.

Solved cases (5 shown):
# compound, target-of-assay, zone of inhibition at 750 µg/mL [mm]
records = [
    ("NC(=O)N1N=C(c2cccc3ccccc23)CC1c1ccc([N+](=O)[O-])cc1 (configuration not stated)", "Bacillus pumilus", 10),
    ("NC(=S)N1N=C(c2cccc3ccccc23)CC1c1ccc([N+](=O)[O-])cc1 (configuration not stated)", "Bacillus pumilus", 18),
    ("O=[N+]([O-])c1ccc(C2CC(c3cccc4ccccc34)=NN2c2ccc([N+](=O)[O-])cc2[N+](=O)[O-])cc1 (configuration not stated)", "Bacillus pumilus", 20),
    ("O=[N+]([O-])c1ccc(C2CC(c3cccc4ccccc34)=NN2)cc1 (configuration not stated)", "Bacillus pumilus", 14),
    ("O=[N+]([O-])c1ccc(C2CC(c3cccc4ccccc34)=NN2c2ccccc2)cc1 (configuration not stated)", "Bacillus pumilus", 14),
]

# batch size: 2; output zone of inhibition at 750 µg/mL per entry
1. O=[N+]([O-])c1ccc(C2CC(c3cccc4ccccc34)=NN2c2ccccc2[N+](=O)[O-])cc1 (configuration not stated)
2. O=[N+]([O-])c1ccc(C2CC(c3cccc4ccccc34)=NN2c2ccc([N+](=O)[O-])cc2)cc1 (configuration not stated)

Response:
18
15

---

Test system: Aspergillus niger
protocol-text: Antifungal activity against Aspergillus niger MTCC 2546 after 24 to 48 hr by tube dilution method
Format: functional
For each of the compounds below, state its MIC.
Answers are plain numbers, in µg/mL.

// solved cases for MIC follow
# compound, MIC / µg/mL
records = [
    ("NC(=O)N1N=C(c2cccc3ccccc23)CC1c1ccc([N+](=O)[O-])cc1 (centres undefined)", 50),
    ("O=[N+]([O-])c1ccc(C2CC(c3cccc4ccccc34)=NN2c2ccccc2[N+](=O)[O-])cc1 (centres undefined)", 30),
    ("NC(=S)N1N=C(c2cccc3ccccc23)CC1c1ccc([N+](=O)[O-])cc1 (centres undefined)", 30),
]

Proceed to the following item.
Prompt: I'd like to know its MIC. The compound in question is O=[N+]([O-])c1ccc(C2CC(c3cccc4ccccc34)=NN2c2ccc([N+](=O)[O-])cc2[N+](=O)[O-])cc1 (centres undefined)
Response: 150

---

System: Bacillus subtilis
protocol-text: Antibacterial activity against Bacillus subtilis MTCC 441 at 500 ug/ml after 48 hr by cup-plate method
Assay type: functional
condition-label: MTCC 441, 48 h, read-out: DIZ
measurement-type: zone of inhibition at 500 µg/mL (mm)
One number for each entry, in mm.

# molecule, target-of-assay, measurement-units, experimental-result
measured = [
    ("O=[N+]([O-])c1ccc(C2CC(c3cccc4ccccc34)=NN2c2ccccc2)cc1 (configuration not stated)", "Bacillus subtilis", "mm", 15),
    ("O=[N+]([O-])c1ccc(C2CC(c3cccc4ccccc34)=NN2c2ccccc2[N+](=O)[O-])cc1 (configuration not stated)", "Bacillus subtilis", "mm", 14),
    ("O=[N+]([O-])c1ccc(C2CC(c3cccc4ccccc34)=NN2)cc1 (configuration not stated)", "Bacillus subtilis", "mm", 13),
    ("O=[N+]([O-])c1ccc(C2CC(c3cccc4ccccc34)=NN2c2ccc([N+](=O)[O-])cc2)cc1 (configuration not stated)", "Bacillus subtilis", "mm", 13),
]

Please supply zone of inhibition at 500 µg/mL for each of the following items, keeping them in order.
1. NC(=S)N1N=C(c2cccc3ccccc23)CC1c1ccc([N+](=O)[O-])cc1 (configuration not stated)
2. NC(=O)N1N=C(c2cccc3ccccc23)CC1c1ccc([N+](=O)[O-])cc1 (configuration not stated)
3. O=[N+]([O-])c1ccc(C2CC(c3cccc4ccccc34)=NN2c2ccc([N+](=O)[O-])cc2[N+](=O)[O-])cc1 (configuration not stated)

Response:
12
13
13

---

Assignment: determine reported zone of inhibition at 250 µg/mL for the given compounds.
Test system: Aspergillus niger
protocol-text: Antifungal activity against Aspergillus niger MTCC 2546 at 250 ug/ml after 48 hr by cup-plate method
Assay type: functional
condition-label: MTCC 2546, 48 h, read-out: DIZ
Numbers only, in mm.

These recorded examples may help you get a feel for the data.
# compound, measurement-type, measurement-units, experimental-result
data = [
    ("O=[N+]([O-])c1ccc(C2CC(c3cccc4ccccc34)=NN2c2ccc([N+](=O)[O-])cc2)cc1 (stereo unspecified)", "zone of inhibition at 250 µg/mL", "mm", 13),
    ("NC(=O)N1N=C(c2cccc3ccccc23)CC1c1ccc([N+](=O)[O-])cc1 (stereo unspecified)", "zone of inhibition at 250 µg/mL", "mm", 11),
    ("O=[N+]([O-])c1ccc(C2CC(c3cccc4ccccc34)=NN2c2ccccc2)cc1 (stereo unspecified)", "zone of inhibition at 250 µg/mL", "mm", 12),
    ("O=[N+]([O-])c1ccc(C2CC(c3cccc4ccccc34)=NN2)cc1 (stereo unspecified)", "zone of inhibition at 250 µg/mL", "mm", 9),
    ("O=[N+]([O-])c1ccc(C2CC(c3cccc4ccccc34)=NN2c2ccccc2[N+](=O)[O-])cc1 (stereo unspecified)", "zone of inhibition at 250 µg/mL", "mm", 11),
]

Let us move to another entry and its zone of inhibition at 250 µg/mL.
Prompt: Which measured zone of inhibition at 250 µg/mL value corresponds to NC(=S)N1N=C(c2cccc3ccccc23)CC1c1ccc([N+](=O)[O-])cc1 (stereo unspecified) ?
Response: 11

Data provenance is ChEMBL document CHEMBL3044945.
